Test system: J774 murine macrophages
test-protocol: Cytotoxicity assay on macrophages (resazurin)
Type: cell-based
assay-context: Table S3; 24 h exposure; read-out: Toxicity against J774 macrophages CC50
measurement-kind: CC50 (µM)
Answer with a number only, understood to be in µM.

{"compound": "COC(=O)CNC(=O)c1c(-c2ccc(F)cc2)[n+]([O-])c2cc(C)ccc2[n+]1[O-] [Compound 4m]", "CC50, µM": 454}

// next item, CC50 requested
Entry COC(=O)CNC(=O)c1c(-c2ccccc2)[n+]([O-])c2ccccc2[n+]1[O-] [Compound 4a] : reported CC50 = ? 850

----------
Tested on: Leishmania donovani promastigotes
test-protocol: Promastigote susceptibility assay (resazurin), L. donovani
Assay type: cell-based
assay-context: Table S2; promastigotes, 48 h
IC50 for assorted compounds
Your answer should be a plain number; it is taken to be in µM.

{"compound": "COC(=O)CNC(=O)c1c(-c2ccccc2)[n+]([O-])c2cc(C(F)(F)F)ccc2[n+]1[O-] [Compound 4n]", "observed": 43.5}
{"compound": "COC(=O)CNC(=O)c1c(-c2ccccc2)[n+]([O-])c2ccccc2[n+]1[O-] [Compound 4a]", "observed": 103}
{"compound": "COC(=O)CNC(=O)c1c(-c2ccccc2C)[n+]([O-])c2cc(OC)ccc2[n+]1[O-] [Compound 4k]", "observed": 23.9}
{"compound": "COC(=O)CNC(=O)c1c(-c2cccc(Cl)c2)[n+]([O-])c2cc(OC)ccc2[n+]1[O-] [Compound 4g]", "observed": 40}
{"compound": "COC(=O)CNC(=O)c1c(-c2ccc(OC)cc2)[n+]([O-])c2ccccc2[n+]1[O-] [Compound 4b]", "observed": 261}

Query compound follows.
Recorded IC50 for COC(=O)CNC(=O)c1c(-c2ccc(F)cc2)[n+]([O-])c2cc(C)ccc2[n+]1[O-] [Compound 4m] with Leishmania donovani promastigotes, please? 84.8
